# Test system: K562
# EXPERIMENTAL DETAILS: Induction of cell cycle arrest in human K562 cells assessed as accumulation of cells in S phase at 8xIC50 concentration after 24 hrs by propidium iodide staining based cytofluorimetric analysis (reference value: 26.17%)
# Type: functional
Give Activity for every item shown.
Enter the number, and then the unit.

Quick batch: Activity for everything below.
1. O=C(/C=C/C(=O)c1ccc(F)cc1)Nc1ccccc1
2. O=C(/C=C/C(=O)c1ccccc1)Nc1ccccc1
3. Cc1ccc(C)c(C(=O)/C=C/C(=O)Nc2ccccc2)c1
4. CC(C)c1ccc(NC(=O)/C=C/C(=O)c2ccc(C(C)C)cc2C(C)C)cc1

1. 37.56%
2. 36.54%
3. 37.32%
4. 24.52%
